Provenance of the data: patent US20180016327A1

Biological target: T1, human C5 (human, UniProt P01031 19-673; P01031 678-1676, Beta and alpha chains are disulfide-linked and the protein is glycosylated.)
T1 construct: Either in-house recombinant C5 or plasma derived C5 (CALBIOCHEM) was used; also called recombinant human C5; plasma derived human C5
Test: Biacore, captured antibody, pH 7.4, 37 C;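 further: biacore binding response of anti-C5 antibody light chain variants captured on chip with human C5 injected, ACES running buffer containing 1.2 mM CaCl₂, parent light chain antibody set to 100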
# binarize % binding (parent = 100): threshold 10% inclusive, high side Y, low side N

>  <binder>
CFP0018 18L 32N (antibody, V domains shown) VH: QVQLVQSGAEVKKPGSSVKVSCKASGGTFSSYAISWVRQAPGQGLEWMGGIIPIFGTANYAQKFQGRVTITADESTSTAYMELSSLRSEDTAVYYCARQLYGYYELDIWGQGTLVTVSS VL: DIQMTQSPSSLSASVGDRVTITCRASQSISDNLAWYQQKPGKAPKLLIYEASSLQSGVPSRFSGSGSGTDFTLTISSLQPEDFATYYCQQYNSYPLTFGQGTKVEIK

>  <discreteLabel>
Y

$$$$
>  <binder>
CFP0015 15L 31E (antibody, V domains shown) VH: QVQLLESGGGLVQPGGSLRLSCAASGFTFSSYAMSWVRQAPGKGLEWVSAISGSGGSTYYADSVKGRFTISRDNSKNTLYLQMNSLRAEDTAVYYCARGDQIWYDQWYYFDMWGQGTLVTVSS VL: DIQMTQSPSSLSASVGDRVTITCRASQSIEEDLAWYQQKPGKAPKLLIYEASNLQSGVPSRFSGSGSGTDFTLTISSLQPEDFATYYCQQYDSSPLTFGQGTKVEIK

>  <discreteLabel>
Y

$$$$
>  <binder>
CFP0015 15L 96F (antibody, V domains shown) VH: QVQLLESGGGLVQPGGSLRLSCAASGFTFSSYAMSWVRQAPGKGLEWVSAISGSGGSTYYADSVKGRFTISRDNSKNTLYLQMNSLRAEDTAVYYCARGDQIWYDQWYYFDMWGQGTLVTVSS VL: DIQMTQSPSSLSASVGDRVTITCRASQSIEDDLAWYQQKPGKAPKLLIYEASNLQSGVPSRFSGSGSGTDFTLTISSLQPEDFATYYCQQYDSSPFTFGQGTKVEIK

>  <discreteLabel>
Y

$$$$
>  <binder>
CFP0021 21L 96W (antibody, V domains shown) VH: QVQLVESGGGLVQPGGSLRLSCAASGFTFSDHYMDWVRQAPGKGLEWVGRTRNKANSYTTEYAASVKGRFTISRDDSKNSLYLQMNSLKTEDTAVYYCARTGMMYWGIFDVWGQGTLVTVSS VL: DIQMTQSPSSLSASVGDRVTITCRASQSIEDDLAWYQQKPGKAPKLLIYHASTLQSGVPSRFSGSGSGTDFTLTISSLQPEDFATYYCQQHDSYPWTFGQGTKVEIK

>  <discreteLabel>
N

$$$$
>  <binder>
CFP0021 21L 96I (antibody, V domains shown) VH: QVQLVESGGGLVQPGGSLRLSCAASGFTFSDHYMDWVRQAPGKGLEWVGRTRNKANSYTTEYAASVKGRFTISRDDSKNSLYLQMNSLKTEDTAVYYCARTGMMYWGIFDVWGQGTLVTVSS VL: DIQMTQSPSSLSASVGDRVTITCRASQSIEDDLAWYQQKPGKAPKLLIYHASTLQSGVPSRFSGSGSGTDFTLTISSLQPEDFATYYCQQHDSYPITFGQGTKVEIK

>  <discreteLabel>
Y

$$$$
